These entries and their values trace back to patent US7179817B2.

molecular target: human EDG-1 (Homo sapiens, UniProt P21453); experiment: Assessment of an agonistic action by monitoring the intracellular calcium ion; conditions: human EDG-1 gene over expression CHO cells; Fura2 intracellular Ca2+ increase; Concentration of Half-100 nM S1P Ca2+ release
Sequence (P21453 whole entry): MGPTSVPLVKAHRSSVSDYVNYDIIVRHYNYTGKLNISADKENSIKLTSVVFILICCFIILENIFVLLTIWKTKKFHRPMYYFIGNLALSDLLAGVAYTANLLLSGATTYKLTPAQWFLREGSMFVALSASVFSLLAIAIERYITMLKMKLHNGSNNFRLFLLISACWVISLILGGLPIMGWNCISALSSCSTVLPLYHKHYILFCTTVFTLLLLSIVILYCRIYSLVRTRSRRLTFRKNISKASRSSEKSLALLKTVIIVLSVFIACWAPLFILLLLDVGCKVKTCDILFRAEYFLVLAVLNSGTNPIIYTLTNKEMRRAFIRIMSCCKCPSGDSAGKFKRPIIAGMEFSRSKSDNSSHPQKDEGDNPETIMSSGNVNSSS
Structures can show the parent of a compound that is named as a salt.
Each entry below carries its recorded pEC50.
On this scale, pEC50 is minus log10 of a concentration expressed in M (mol/L).

# count of solved cases: 3
| molecule | target desc | measured |
| --- | --- | --- |
| O=C(O)CCNCCc1ccc(OCCCCCc2ccccc2)cc1 [Example 32, hydrochloride] | human EDG-1 (Homo sapiens, UniProt P21453) | 7.52 |
| O=C(O)c1cncc(C(=O)NCCc2ccc(OCCCCCc3ccccc3)cc2)c1 [Example 16(3)] | human EDG-1 (Homo sapiens, UniProt P21453) | 8.35 |
| O=C(NCCc1ccc(OCCCCCc2ccccc2)cc1)c1ccc(C(=O)O)c(C(=O)O)c1 [Example 19] | human EDG-1 (Homo sapiens, UniProt P21453) | 8.82 |

Now turn to the next molecule.
// query pEC50 value for entry O=C(NCCc1ccc(OCCCCCc2ccccc2)cc1)c1ccc(Cl)c(C(=O)O)c1 [Example 16]
8.08

====

Measured EC50 accompanies every entry in the list below.
target: human EDG-1 (Homo sapiens, UniProt P21453); assay: Assessment of an agonistic action by monitoring the intracellular calcium ion; details: human EDG-1 gene over expression CHO cells; Fura2 intracellular Ca2+ increase; Concentration of Half-100 nM S1P Ca2+ release
Express the result in nM but write the number alone.

Known results for compounds:
| input smiles | EC50 (nM) |
| --- | --- |
| O=C(CCc1ccc(OCCCCCc2ccccc2)cc1)Nc1cc(Cl)c(Cl)c(C(=O)O)c1 | 7.3 |
| O=C(CCc1ccc(OCCCCCc2ccccc2)cc1)Nc1ccc(Cl)c(C(=O)O)c1 | 9 |
| O=C(O)CNC(=O)CCc1ccc(CCCCCCc2ccccc2)cc1 | 25 |

Lab note: next compound to report on.
Fill in: EC50 of O=C(CCc1ccc(OCCCCCc2ccccc2)cc1)Nc1ccc(C(=O)O)c(C(=O)O)c1 is ___
1.4
